From: patent US20140178935A1

# system: T1, recombinant mhm chimeric HGF protein containing the region I499-R556 of hHGF disposed between murine sequences (mouse-human-mouse chimera, UniProt Q08048 56-728)
# T1 construct: also called mhm chimera (I499-R556)
# T1 chain: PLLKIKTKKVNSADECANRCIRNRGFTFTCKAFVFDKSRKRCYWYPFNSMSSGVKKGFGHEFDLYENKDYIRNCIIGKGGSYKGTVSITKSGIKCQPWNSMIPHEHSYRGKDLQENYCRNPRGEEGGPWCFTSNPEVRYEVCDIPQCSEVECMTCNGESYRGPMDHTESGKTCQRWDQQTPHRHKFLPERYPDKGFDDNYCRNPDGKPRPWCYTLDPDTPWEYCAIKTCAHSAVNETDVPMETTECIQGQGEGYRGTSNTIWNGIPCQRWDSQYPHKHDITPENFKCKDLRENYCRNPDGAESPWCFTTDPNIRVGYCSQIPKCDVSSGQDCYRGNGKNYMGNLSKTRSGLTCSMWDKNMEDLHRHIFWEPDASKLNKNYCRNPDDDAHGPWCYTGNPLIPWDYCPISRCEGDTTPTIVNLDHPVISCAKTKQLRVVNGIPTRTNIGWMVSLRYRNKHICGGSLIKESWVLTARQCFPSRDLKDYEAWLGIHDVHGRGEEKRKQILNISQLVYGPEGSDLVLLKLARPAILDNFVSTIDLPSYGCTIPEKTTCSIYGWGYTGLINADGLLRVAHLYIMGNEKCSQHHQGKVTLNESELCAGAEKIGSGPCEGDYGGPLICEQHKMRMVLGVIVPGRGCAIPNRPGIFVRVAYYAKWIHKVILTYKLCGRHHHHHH
# assay procedure: SPR, antibody immobilized, HGF protein injected, 25 C

binder: HE2B8-2 (LR2B8HC + IgG1 constant region G1m(3) allotype allele 1, plus LRMR2B8LC + Kappa constant region Km(3) allotype allele 1) (antibody, V domains shown, Human Engineered 2B8 variant, human IgG1 kappa, made in HEK293E cells) VH: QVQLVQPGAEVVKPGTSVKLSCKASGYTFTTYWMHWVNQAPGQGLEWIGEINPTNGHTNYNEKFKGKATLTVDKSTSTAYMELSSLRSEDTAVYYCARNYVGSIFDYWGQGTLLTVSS VL: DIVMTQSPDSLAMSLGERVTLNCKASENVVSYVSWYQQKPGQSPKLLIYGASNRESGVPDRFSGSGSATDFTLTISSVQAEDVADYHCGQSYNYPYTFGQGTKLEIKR
binding result: binds
